Tested on: B16-F10 melanoma cell line
Test: chronic cell growth (cell proliferation) assay, 4 days
Assay type: cell-based
Conditions: read-out: ED50, dose required to reduce cell growth by 50%; chronic treatment, 4 days; 5760 min
I'd be grateful if you could share measured pIC50 for these entries.
Entry type: numeric. Quantity: pIC50, the -log10 of concentration in molar units.

The molecule listed as CCCC=CC=CC(=O)OC1C(=CC(=O)OC)CC2CC(C(C)O)OC(=O)CC(O)CC3CC(OC(C)=O)C(C)(C)C(O)(CC4CC(=CC(=O)OC)CC(C=CC(C)(C)C1(O)O2)O4)O3 (centres unmarked) [bryostatin 1] shows pIC50 equal to 7.30

The molecule listed as CCCC=CC=CC(=O)OC1C(=CC(=O)OC)CC2CC(C(C)O)OC(=O)CC(O)CC3CC(OC(C)=O)C(C)(C)C(O)(CC4CC(=CC(=O)OC)CC(C=CC(C)(C)C1(O)O2)O4)O3 (stereo not drawn) [26-epi-bryostatin 1] shows pIC50 equal to 6.85
